Cited source: patent US20190133128A1

- Test system: Botrytis cinerea
- protocol_summary: Test C: preventive spray on tomato seedlings, gray mold, visual disease rating
- Format: in vivo
- condition_summary: Botrytis cinerea, 250 ppm, 100 = 100% disease control, 0 = no control
# maps each entry to its pest or weed control at 250 ppm
assay_endpoint: pest or weed control at 250 ppm (%)

# compound, measured_target, unit_annotation, observed_result
data = [
    ("Cn1ncc(OS(C)(=O)=O)c(C(=O)Nc2ccc(C(F)(F)F)cc2)c1=O [Compound 96]", "Botrytis cinerea", "%", 30),
    ("Cn1ncc(Cl)c(C(=O)Nc2ccc(OC(F)(F)F)cc2)c1=O [Compound 41]", "Botrytis cinerea", "%", 0),
    ("Cn1ncc(OS(C)(=O)=O)c(C(=O)Nc2ccc(S(F)(F)(F)(F)F)cc2)c1=O [Compound 99]", "Botrytis cinerea", "%", 50),
    ("Cn1ncc(O)c(C(=O)Nc2ccc(S(F)(F)(F)(F)F)cc2)c1=O [Compound 91]", "Botrytis cinerea", "%", 0),
    ("Cn1ncc(O)c(C(=O)Nc2ccc(C(F)(F)F)cc2)c1=O [Compound 2]", "Botrytis cinerea", "%", 0),
    ("Cn1ncc(O)c(C(=O)Nc2ccc(C(F)(F)F)cc2F)c1=O [Compound 50]", "Botrytis cinerea", "%", 85),
    ("Cn1ncc(O)c(C(=O)Nc2ccc(OC(F)(F)F)cc2)c1=O [Compound 21]", "Botrytis cinerea", "%", 0),
    ("Cn1ncc2oc(=O)n(-c3ccc(OC(F)(F)F)cc3)c(=O)c2c1=O [Compound 89]", "Botrytis cinerea", "%", 0),
    ("Cn1ncc(OS(C)(=O)=O)c(C(=O)Nc2ccc(OC(F)F)cc2)c1=O [Compound 97]", "Botrytis cinerea", "%", 40),
    ("Cn1ncc(O)c(C(=O)Nc2ccc(OC(F)F)cc2)c1=O [Compound 47]", "Botrytis cinerea", "%", 0),
    ("Cn1ncc(OS(C)(=O)=O)c(C(=O)Nc2ccc(C#N)cc2)c1=O [Compound 98]", "Botrytis cinerea", "%", 98),
    ("Cn1ncc(Br)c(C(=O)Nc2ccc(OC(F)(F)F)cc2)c1=O [Compound 42]", "Botrytis cinerea", "%", 0),
]
